These data points were gathered from patent US20240252506A1.

Tested on: Escherichia coli ATCC 25922
protocol: Minimal Inhibitory Concentration (MIC) determination, broth microdilution (CLSI M07-A10)
Format: cell-based
conditions-used: Escherichia coli, ATCC25922, strain Escherichia coli ATCC 25922, 18-24 hours at 35±2° C., lowest concentration for complete growth inhibition (no visible growth), read-out: Escherichia coli growth inhibition MIC
As shown below, each of these molecules has a reported MIC value.
value-type: MIC (µg/mL)

molecule="O=C(O)C(F)(F)F.O=C1COc2ncc(N3CC4(CCN(CC5Cc6c(c(F)c7[nH]c([C@@H]8COCCN8)nc7c6F)C5)CC4)OC3=O)nc2N1 [Example 18]" experimental_target="Escherichia coli ATCC 25922" value_type=MIC experimental_result=0.5
molecule="O=C1COc2ncc(N3CC4(CCN(CC5Cc6cc7nc([C@@H]8CCN8)oc7c(F)c6C5)CC4)OC3=O)nc2N1 (single isomer, unassigned) [Example 106]" experimental_target="Escherichia coli ATCC 25922" value_type=MIC experimental_result=0.125
molecule="CC(=O)N(C)CCn1nnc2c(F)c3c(c(F)c21)CC(CN1CCC2(CC1)CN(c1cnc4c(n1)NC(=O)CO4)C(=O)O2)C3 (single isomer, unassigned) [Example 156]" experimental_target="Escherichia coli ATCC 25922" value_type=MIC experimental_result=8
molecule="O=C(O)C(F)(F)F.O=C1COc2ncc(N3CC4(CCN(CC5Cc6c(c(F)c7[nH]c([C@@H]8CCC(=O)N8)nc7c6F)C5)CC4)OC3=O)nc2N1 [Example 21]" experimental_target="Escherichia coli ATCC 25922" value_type=MIC experimental_result=1
molecule="CNC(CO)c1nc2c(F)c3c(c(F)c2[nH]1)CC(CN1CCC2(CC1)CN(c1cnc4c(n1)NC(=O)CO4)C(=O)O2)C3 (single isomer, unassigned) [Example 66]" experimental_target="Escherichia coli ATCC 25922" value_type=MIC experimental_result=0.25
molecule="C[C@H](C(=O)NCCn1nc2c(F)c3c(c(F)c2n1)CC(CN1CCC2(CC1)CN(c1cnc4c(n1)NC(=O)CO4)C(=O)O2)C3)N(C)C [Example 150]" experimental_target="Escherichia coli ATCC 25922" value_type=MIC experimental_result=1

###

Test system: Escherichia coli ATCC 25922
protocol: Minimal Inhibitory Concentration (MIC) determination, broth microdilution (CLSI M07-A10)
Assay type: cell-based
conditions-used: Escherichia coli, ATCC25922, strain Escherichia coli ATCC 25922, 18-24 hours at 35±2° C., lowest concentration for complete growth inhibition (no visible growth), read-out: Escherichia coli growth inhibition MIC
As shown below, each of these molecules has a reported MIC value.
value-type: MIC (µg/mL)

molecule=O=C(O)C(F)(F)F.O=C1COc2ncc(N3CC4(CCN(CC5Cc6c(c(F)c7[nH]c([C@H]8C[C@@H](O)CN8)nc7c6F)C5)CC4)OC3=O)nc2N1 experimental_target="Escherichia coli ATCC 25922" experimental_result=0.25
molecule="O=C1COc2ncc(N3CC4(CCN(CC5Cc6c(c(F)c7c(nnn7C7CNC7)c6F)C5)CC4)OC3=O)nc2N1 (stereo not drawn)" experimental_target="Escherichia coli ATCC 25922" experimental_result=0.125
molecule="CNCc1nc2cc(F)c3c(c2[nH]1)CC(CN1CCC2(CC1)CN(c1cnc4c(n1)NC(=O)CO4)C(=O)O2)C3 (stereo not drawn)" experimental_target="Escherichia coli ATCC 25922" experimental_result=0.125

###

Tested on: Escherichia coli ATCC 25922
protocol: Minimal Inhibitory Concentration (MIC) determination, broth microdilution (CLSI M07-A10)
Format: cell-based
conditions-used: Escherichia coli, ATCC25922, strain Escherichia coli ATCC 25922, 18-24 hours at 35±2° C., lowest concentration for complete growth inhibition (no visible growth), read-out: Escherichia coli growth inhibition MIC
value-type: MIC (µg/mL)

compound=O=C(O)C(F)(F)F.O=C1COc2ccc(N3CC4(CCN(CC5Cc6c(c(F)c7[nH]c([C@H]8CCNC8)nc7c6F)C5)CC4)OC3=O)nc2N1 value_type=MIC experimental_result=0.25
compound=O=C(O)C(F)(F)F.O=C1COc2ncc(N3CC4(CCN(CC5Cc6c(c(F)c7[nH]c([C@@H]8C[C@@H](O)CN8)nc7c6F)C5)CC4)OC3=O)nc2N1 value_type=MIC experimental_result=0.25
compound="C[C@H](N)Cn1cnc2c(F)c3c(c(F)c21)CC(CN1CCC2(CC1)CN(c1cnc4c(n1)NC(=O)CO4)C(=O)O2)C3 (stereo partly drawn)" value_type=MIC experimental_result=0.25
compound="O=C(O)C(F)(F)F.O=C1COc2ncc(N3CC4(CCN(CC5Cc6cc7[nH]c([C@@H]8C[C@@H](O)CN8)nc7c(F)c6C5)CC4)OC3=O)nc2N1 (stereo partly drawn)" value_type=MIC experimental_result=0.25
compound="O=C(O)C(F)(F)F.O=C1COc2ncc(N3CC4(CCN(CC5Cc6c(c(F)c7[nH]c(C8CNCCO8)nc7c6F)C5)CC4)OC3=O)nc2N1 (stereo not drawn)" value_type=MIC experimental_result=0.25
compound="CNCc1nc2cc3c(c(F)c2[nH]1)CC(CN1CCC2(CC1)CN(c1cnc4c(n1)NC(=O)CO4)C(=O)O2)C3 (single isomer, unassigned)" value_type=MIC experimental_result=0.125

###

Tested on: Escherichia coli ATCC 25922
protocol: Minimal Inhibitory Concentration (MIC) determination, broth microdilution (CLSI M07-A10)
Assay type: cell-based
conditions-used: Escherichia coli, ATCC25922, strain Escherichia coli ATCC 25922, 18-24 hours at 35±2° C., lowest concentration for complete growth inhibition (no visible growth), read-out: Escherichia coli growth inhibition MIC
value-type: MIC (µg/mL)

molecule="NCc1nc2cc3c(c(F)c2o1)CC(CN1CCC2(CC1)CN(c1cnc4c(n1)NC(=O)CO4)C(=O)O2)C3 (single isomer, unassigned) [Example 104]" value_type=MIC qualifier_operator== experimental_result=0.125
molecule="CN[C@H](C)c1nc2c(F)c3c(c(F)c2[nH]1)CC(CN1CCC2(CC1)CN(c1cnc4c(n1)NC(=O)CO4)C(=O)O2)C3.O=C(O)C(F)(F)F [Example 17]" value_type=MIC qualifier_operator== experimental_result=0.125
molecule="NCCn1nc2cc(F)c3c(c2n1)CC(CN1CCC2(CC1)CN(c1cnc4c(n1)NC(=O)CO4)C(=O)O2)C3.O=C(O)C(F)(F)F (stereo not drawn) [Example 83]" value_type=MIC qualifier_operator=≤ experimental_result=0.06
molecule="CN(C)Cc1nc2c(F)c3c(c(F)c2[nH]1)CC(CNC1CC2(C1)CN(c1cnc4c(n1)NC(=O)CO4)C(=O)O2)C3 (stereo not drawn) [Example 29]" value_type=MIC qualifier_operator== experimental_result=0.5
molecule="NCCn1nnc2c(F)c3c(cc21)CC(CN1CCC2(CC1)CN(c1cnc4c(n1)NC(=O)CO4)C(=O)O2)C3 (stereo not drawn) [Example 75]" value_type=MIC qualifier_operator=≤ experimental_result=0.06
molecule="CNCC(=O)NCCn1nc2c(F)c3c(c(F)c2n1)CC(CN1CCC2(CC1)CN(c1cnc4c(n1)NC(=O)CO4)C(=O)O2)C3 [Example 159]" value_type=MIC qualifier_operator== experimental_result=0.25
molecule="O=C1COc2ncc(N3CC4(CCN(CC5Cc6c(c(F)c7[nH]c(CN8CCS(=O)(=O)CC8)nc7c6F)C5)CC4)OC3=O)nc2N1 [Example 5]" value_type=MIC qualifier_operator== experimental_result=2
molecule="O=C1COc2ccc(N3CC4(CCN(CC5Cc6cc7nc([C@@H]8C[C@@H](O)CN8)oc7c(F)c6C5)CC4)OC3=O)nc2N1 (stereo partly drawn) [Example 147]" value_type=MIC qualifier_operator== experimental_result=0.5
molecule="C[C@H](N)Cn1nnc2c(F)c3c(c(F)c21)CC(CN1CCC2(CC1)CN(c1cnc4c(n1)NC(=O)CO4)C(=O)O2)C3.Cl (single isomer, unassigned) [Example 130]" value_type=MIC qualifier_operator== experimental_result=0.25
molecule="O=C1COc2ncc(N3CC4(CCN(CC5Cc6c(c(F)c7[nH]c(C89CC(CN8)C9)nc7c6F)C5)CC4)OC3=O)nc2N1 [Example 34]" value_type=MIC qualifier_operator== experimental_result=0.25
molecule="CN[C@@H](C)c1nc2c(F)c3c(c(F)c2[nH]1)CC(CN1CCC2(CC1)CN(c1cnc4c(n1)NC(=O)CO4)C(=O)O2)C3 [Example 38]" value_type=MIC qualifier_operator== experimental_result=0.125
molecule="CN(CCn1nnc2c(F)c3c(c(F)c21)CC(CN1CCC2(CC1)CN(c1cnc4c(n1)NC(=O)CO4)C(=O)O2)C3)C(=O)CN (single isomer, unassigned) [Example 166]" value_type=MIC qualifier_operator== experimental_result=1
molecule="O=C1COc2ncc(N3CC4(CCN(CC5Cc6c(c(F)c7nn(CCNC8CC8)nc7c6F)C5)CC4)OC3=O)nc2N1 [Example 122]" value_type=MIC qualifier_operator== experimental_result=0.5
molecule="NCCn1nc2c(F)c3c(c(F)c2n1)CC(CN1CCC2(CC1)CN(c1cnc4c(n1)NC(=O)CO4)C(=O)O2)C3 [Example 41]" value_type=MIC qualifier_operator=≤ experimental_result=0.06
molecule="O=C1COc2ncc(N3CC4(CCN(CC5Cc6c(c(F)c7[nH]c(CN8CCOCC8)nc7c6F)C5)CC4)OC3=O)nc2N1 [Example 8]" value_type=MIC qualifier_operator== experimental_result=1
molecule="O=C(O)C(F)(F)F.O=C1COc2ncc(N3CC(CCNCC4Cc5c(c(F)c6[nH]c([C@@H]7C[C@@H](O)CN7)nc6c5F)C4)OC3=O)nc2N1 (stereo partly drawn) [Example 47]" value_type=MIC qualifier_operator== experimental_result=2
molecule="N[C@H]1COC[C@@H]1c1nc2cc3c(c(F)c2o1)CC(CN1CCC2(CC1)CN(c1cnc4c(n1)NC(=O)CO4)C(=O)O2)C3 (stereo partly drawn) [Example 138]" value_type=MIC qualifier_operator== experimental_result=1
molecule="CN(C)CCc1nc2c(F)c3c(c(F)c2[nH]1)CC(CN1CCC2(CC1)CN(c1cnc4c(n1)NC(=O)CO4)C(=O)O2)C3 [Example 7]" value_type=MIC qualifier_operator== experimental_result=0.125
molecule="O=C1COc2ncc(N3CC4(CCN(CC5Cc6c(c(F)c7c(nnn7CCNC7CC7)c6F)C5)CC4)OC3=O)nc2N1.O=CO (single isomer, unassigned) [Example 124]" value_type=MIC qualifier_operator== experimental_result=0.5
molecule="COCCNCc1nc2c(F)c3c(cc2[nH]1)CC(CN1CCC2(CC1)CN(c1cnc4c(n1)NC(=O)CO4)C(=O)O2)C3 (stereo not drawn) [Example 70]" value_type=MIC qualifier_operator== experimental_result=0.25
molecule="CN(C)CCn1nnc2c(F)c3c(c(F)c21)CC(CN1CCC2(CC1)CN(c1cnc4c(n1)NC(=O)CO4)C(=O)O2)C3 (stereo not drawn) [Example 64]" value_type=MIC qualifier_operator== experimental_result=0.25
molecule="C[C@@H](N)c1nc2cc3c(c(F)c2[nH]1)CC(CN1CCC2(CC1)CN(c1cnc4c(n1)NC(=O)CO4)C(=O)O2)C3 (stereo partly drawn) [Example 45]" value_type=MIC qualifier_operator== experimental_result=0.125
molecule="O=C1COc2ccc(N3CC4(CCN(CC5Cc6cc7nc(C8CNC8)oc7c(F)c6C5)CC4)OC3=O)nc2N1 (single isomer, unassigned) [Example 111]" value_type=MIC qualifier_operator== experimental_result=0.5
molecule="NCCn1nnc2c(F)c3c(c(F)c21)CC(CN1CCC2(CC1)CN(c1cnc4c(n1)NC(=O)CO4)C(=O)O2)C3 (stereo not drawn) [Example 42]" value_type=MIC qualifier_operator=≤ experimental_result=0.06
